Values compiled from the supplement of paper PMC10567573.

B1: CLCN6 (parent)
chain: MAGCRGSLCCCCRWCCCCGERETR

# Variants of: B1
# ASSAY_COMMENT: protein stability index of a GFP-peptide fusion (GPS, HEK-293T) (PSI 1-6); higher = more stable;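 further: lentivirally expressed fusions sorted by FACS into six bins by GFP to DsRed ratio, PSI derived from sequencing read proportions per bin multiplied by bin number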
# ASSAY_SETUP: c terminus: a fixed tail appended
# Lookup of reported protein stability index keyed by entry
READOUT_NAME: protein stability index

# MACROMOLECULE_SEQUENCE, READOUT_NAME, REPORTED
rows = [
    ("MAGCRGSLWCCCRWCCCCGERETR", "protein stability index", 2.65),
    ("MPGCRGSLCCCCRWCCCCGERETR", "protein stability index", 1.37),
    ("MAGCRGSLCCCCRGCCCCGERETR", "protein stability index", 2.23),
    ("MAGCRGKLCCCCRWCCCCGERETR", "protein stability index", 1.5),
    ("MAGWRGSLCCCCRWCCCCGERETR", "protein stability index", 1.79),
    ("MAGCRGSLCCCCRWCTCCGERETR", "protein stability index", 1.86),
    ("MAGCRGSLCCCCRPCCCCGERETR", "protein stability index", 2.33),
    ("MAWCRGSLCCCCRWCCCCGERETR", "protein stability index", 1.9),
    ("MAGCRGSLCCCCRWVCCCGERETR", "protein stability index", 2.08),
    ("MAGCRGSLCCCCRWCCCCGEIETR", "protein stability index", 1.5),
    ("MAGCRGSLCCCCRWCCCNGERETR", "protein stability index", 1.49),
    ("MAGCRGSLMCCCRWCCCCGERETR", "protein stability index", 2.65),
    ("MQGCRGSLCCCCRWCCCCGERETR", "protein stability index", 1.74),
    ("MAGDRGSLCCCCRWCCCCGERETR", "protein stability index", 2.24),
    ("MAGCRGSLCCHCRWCCCCGERETR", "protein stability index", 1.3),
    ("MAGCRGSLCCCCRWCCCCGESETR", "protein stability index", 2.18),
    ("MAGCRGSLCCCCRWCCCCGERENR", "protein stability index", 2.15),
    ("MAGCGGSLCCCCRWCCCCGERETR", "protein stability index", 1.49),
    ("MAGCRGSLCCCCRWLCCCGERETR", "protein stability index", 2.74),
    ("MAGCRGSLCCCCRQCCCCGERETR", "protein stability index", 2.47),
    ("MAGCRGSLCCCCYWCCCCGERETR", "protein stability index", 2.57),
    ("MAGCRGSLCCCCRWKCCCGERETR", "protein stability index", 1.82),
    ("MAGCRGSLCCCCRWCCCPGERETR", "protein stability index", 1.8),
    ("MAGCRNSLCCCCRWCCCCGERETR", "protein stability index", 1.72),
    ("MAGCRGSLCCCCRWCCCCGERQTR", "protein stability index", 1.83),
    ("MAGCQGSLCCCCRWCCCCGERETR", "protein stability index", 2.33),
    ("MAGCRGSLCCVCRWCCCCGERETR", "protein stability index", 1.41),
    ("MAGCRGSNCCCCRWCCCCGERETR", "protein stability index", 1.42),
    ("MAGCCGSLCCCCRWCCCCGERETR", "protein stability index", 2.33),
    ("MAGCRGSLCCCCRWCCCCGERSTR", "protein stability index", 1.65),
    ("MAGCRGSLCCECRWCCCCGERETR", "protein stability index", 2.27),
    ("MAGCRGSLCNCCRWCCCCGERETR", "protein stability index", 1.7),
    ("MAGCRGSLCCCCRWCCCCGERETE", "protein stability index", 2.95),
    ("MAGCRGNLCCCCRWCCCCGERETR", "protein stability index", 1.09),
    ("MAGCRGSLCCCCRWCCCCGERETH", "protein stability index", 2.55),
    ("MAGCRHSLCCCCRWCCCCGERETR", "protein stability index", 1.86),
    ("MAGCRGSLCCCCRWCCCCFERETR", "protein stability index", 2.53),
    ("MAGCRGSLCCCCRWCCCLGERETR", "protein stability index", 2.49),
    ("MAGCRGSLCICCRWCCCCGERETR", "protein stability index", 1.79),
    ("MAGCRGALCCCCRWCCCCGERETR", "protein stability index", 1.5),
    ("MAGCRGSLCCCCRHCCCCGERETR", "protein stability index", 2.06),
    ("MAGCRGSLCCCCLWCCCCGERETR", "protein stability index", 2.4),
    ("MAGCRGSLCCCCRWCCCTGERETR", "protein stability index", 1.86),
    ("KAGCRGSLCCCCRWCCCCGERETR", "protein stability index", 2.14),
    ("MAGCRDSLCCCCRWCCCCGERETR", "protein stability index", 2.36),
    ("MAGCRGSLCCCCRKCCCCGERETR", "protein stability index", 2.32),
    ("MAGCRGSLLCCCRWCCCCGERETR", "protein stability index", 1.64),
    ("MAGCRWSLCCCCRWCCCCGERETR", "protein stability index", 2.54),
    ("MAGCRTSLCCCCRWCCCCGERETR", "protein stability index", 1.59),
    ("MAGCRGSLCCCCRWCCCCGEREMR", "protein stability index", 1.87),
    ("MAGCRGSLCCCCRWCCICGERETR", "protein stability index", 1.62),
    ("MAYCRGSLCCCCRWCCCCGERETR", "protein stability index", 2.37),
    ("MAGCRGSLCCCCMWCCCCGERETR", "protein stability index", 2.13),
    ("MAGCRGSLCCCCRWCCCCGYRETR", "protein stability index", 1.89),
    ("MAGCRGSLCCCMRWCCCCGERETR", "protein stability index", 2.19),
    ("MAGCRGSLCCCCRWCCCCGKRETR", "protein stability index", 2.22),
    ("MAGCRGSLCCCCRWCCCCGEREPR", "protein stability index", 1.83),
    ("MAGCRGSLCCCCPWCCCCGERETR", "protein stability index", 1.76),
    ("MAGCRGSLCCCCRWSCCCGERETR", "protein stability index", 2),
    ("MAGCRGSLCCCCRWCCCCGERFTR", "protein stability index", 2.16),
    ("MAGCRGSLCPCCRWCCCCGERETR", "protein stability index", 1.45),
    ("MAGCRGSLCCCCRWCCCCGQRETR", "protein stability index", 1.55),
    ("MAGCRGSLECCCRWCCCCGERETR", "protein stability index", 1.45),
    ("MAGCRGSLCCCCRECCCCGERETR", "protein stability index", 2.08),
    ("MAQCRGSLCCCCRWCCCCGERETR", "protein stability index", 1.31),
    ("MAGCRGSLCCCCRWCKCCGERETR", "protein stability index", 1.65),
    ("MAGCRGSLCCCCRWCCLCGERETR", "protein stability index", 2.55),
    ("MAGCRGSKCCCCRWCCCCGERETR", "protein stability index", 1.53),
    ("MAGCRGSLCWCCRWCCCCGERETR", "protein stability index", 1.69),
    ("MAGCRGSLCCCCRWCCDCGERETR", "protein stability index", 1.96),
    ("MAGCRGSLCCCCRWCCCCEERETR", "protein stability index", 1.86),
    ("MAGCRGSLCCCLRWCCCCGERETR", "protein stability index", 2.86),
    ("MAKCRGSLCCCCRWCCCCGERETR", "protein stability index", 1.52),
    ("MAGCRGSLCCCCRWCCCCGCRETR", "protein stability index", 2.16),
    ("MAGCRGSLCCCCRWCCCCGERETN", "protein stability index", 2.74),
    ("MAGCRGSLCCCCRWCCTCGERETR", "protein stability index", 1.27),
    ("MAGCRGSLCCCCRWCCVCGERETR", "protein stability index", 1.41),
    ("MAGCRGSLCCCCRWCICCGERETR", "protein stability index", 2.23),
    ("MAGCRGSLCCCCRWQCCCGERETR", "protein stability index", 2.39),
    ("MAGCRGSLCHCCRWCCCCGERETR", "protein stability index", 1.69),
    ("MAGGRGSLCCCCRWCCCCGERETR", "protein stability index", 1.45),
    ("MAGCRSSLCCCCRWCCCCGERETR", "protein stability index", 1.82),
    ("MAGCRGPLCCCCRWCCCCGERETR", "protein stability index", 2.19),
    ("MAGCRGSLCCCCRWCHCCGERETR", "protein stability index", 1.47),
    ("MAGCRGSLCCCCRWYCCCGERETR", "protein stability index", 1.36),
    ("MAGCRGSLCACCRWCCCCGERETR", "protein stability index", 1.42),
]
